Assayed Target: natural peanut extract
Protocol Details: ELISA, antigen-coated plate
Value Kind: EC50
Your reply should be a number followed by the unit it is expressed in.

Query: State the recorded EC50 for this entry: hm12G10 (antibody, V domains shown) VH: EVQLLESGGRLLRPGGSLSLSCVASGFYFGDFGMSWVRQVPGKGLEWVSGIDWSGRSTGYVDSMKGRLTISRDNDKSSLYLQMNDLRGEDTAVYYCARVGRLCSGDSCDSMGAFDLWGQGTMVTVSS VL: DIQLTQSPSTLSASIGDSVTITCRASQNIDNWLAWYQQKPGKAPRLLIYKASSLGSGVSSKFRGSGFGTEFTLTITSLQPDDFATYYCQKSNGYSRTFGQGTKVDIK
Reply: 8.5 ng/mL
